Just for reference, ChEMBL document CHEMBL1128824 is where these values come from.

organism: Homo sapiens; assay: Compound was tested for inhibition of phorbol-induced superoxide generation in human neutrophils using neutrophil assay; value ranges from 0.8-2.1; format: functional
pIC50: −log10 of the molar value.
readout_kind: pIC50

Looking up COC(=O)c1cccc(O)c1C(=O)c1c(O)cc(C(=O)O[C@@H]2CCC[C@H]2NC(=O)c2ccc(O)cc2)cc1O (racemic) , I see its pIC50 listed as < 6.10

----------
Entries and their measured pIC50 follow.
species: Homo sapiens; assay: Compound was tested for inhibition of phorbol-induced superoxide generation in human neutrophils using neutrophil assay; type: functional; settings: Homo sapiens
pIC50: −log10 of the molar value.

- compound: "CC(C)COC(=O)c1cccc(O)c1C(=O)c1c(O)cc(C(=O)O[C@@H]2CNC[C@H]2NC(=O)c2ccc(O)cc2)cc1O"
  result: "< 5.00"

Looking up `CC(C)OC(=O)c1cccc(O)c1C(=O)c1c(O)cc(C(=O)O[C@@H]2CCC[C@H]2NC(=O)c2ccc(O)cc2)cc1O` , I see its pIC50 listed as < 5.00

Looking up `CCOC(=O)c1cccc(O)c1C(=O)c1c(O)cc(C(=O)O[C@@H]2CNC[C@H]2NC(=O)c2ccc(O)cc2)cc1O` , I see its pIC50 listed as < 5.00

Looking up O=C(N[C@@H]1CNCCC[C@H]1OC(=O)c1cc(O)c(C(=O)c2c(O)cccc2C(=O)O)c(O)c1)c1ccc(O)cc1 [BALANOL] , I see its pIC50 listed as < 5.00
